For each of the binders below, state its EC50 hC3 cleavage.
Target: plasma purified human complement protein C3 (human) (UniProt P01024)
Sequence (P01024 23-667, chain 1 of 2): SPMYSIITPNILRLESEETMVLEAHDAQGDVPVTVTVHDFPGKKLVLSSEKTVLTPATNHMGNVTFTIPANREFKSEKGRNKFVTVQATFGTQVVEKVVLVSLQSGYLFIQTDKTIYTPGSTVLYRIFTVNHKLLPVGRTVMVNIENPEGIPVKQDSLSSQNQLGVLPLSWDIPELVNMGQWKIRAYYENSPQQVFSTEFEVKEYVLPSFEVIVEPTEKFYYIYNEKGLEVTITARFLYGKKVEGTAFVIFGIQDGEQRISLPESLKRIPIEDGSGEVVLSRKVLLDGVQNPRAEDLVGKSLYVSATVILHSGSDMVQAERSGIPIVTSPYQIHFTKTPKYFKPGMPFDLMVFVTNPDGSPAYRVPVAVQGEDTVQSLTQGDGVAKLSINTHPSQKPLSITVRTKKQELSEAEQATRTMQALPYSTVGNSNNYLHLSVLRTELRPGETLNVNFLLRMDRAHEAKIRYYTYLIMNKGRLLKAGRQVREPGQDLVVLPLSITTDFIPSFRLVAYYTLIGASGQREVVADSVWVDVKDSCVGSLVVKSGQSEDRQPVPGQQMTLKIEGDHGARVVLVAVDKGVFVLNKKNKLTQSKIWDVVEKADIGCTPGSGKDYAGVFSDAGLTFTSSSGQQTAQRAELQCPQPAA
Sequence (P01024 672-1663, chain 2 of 2): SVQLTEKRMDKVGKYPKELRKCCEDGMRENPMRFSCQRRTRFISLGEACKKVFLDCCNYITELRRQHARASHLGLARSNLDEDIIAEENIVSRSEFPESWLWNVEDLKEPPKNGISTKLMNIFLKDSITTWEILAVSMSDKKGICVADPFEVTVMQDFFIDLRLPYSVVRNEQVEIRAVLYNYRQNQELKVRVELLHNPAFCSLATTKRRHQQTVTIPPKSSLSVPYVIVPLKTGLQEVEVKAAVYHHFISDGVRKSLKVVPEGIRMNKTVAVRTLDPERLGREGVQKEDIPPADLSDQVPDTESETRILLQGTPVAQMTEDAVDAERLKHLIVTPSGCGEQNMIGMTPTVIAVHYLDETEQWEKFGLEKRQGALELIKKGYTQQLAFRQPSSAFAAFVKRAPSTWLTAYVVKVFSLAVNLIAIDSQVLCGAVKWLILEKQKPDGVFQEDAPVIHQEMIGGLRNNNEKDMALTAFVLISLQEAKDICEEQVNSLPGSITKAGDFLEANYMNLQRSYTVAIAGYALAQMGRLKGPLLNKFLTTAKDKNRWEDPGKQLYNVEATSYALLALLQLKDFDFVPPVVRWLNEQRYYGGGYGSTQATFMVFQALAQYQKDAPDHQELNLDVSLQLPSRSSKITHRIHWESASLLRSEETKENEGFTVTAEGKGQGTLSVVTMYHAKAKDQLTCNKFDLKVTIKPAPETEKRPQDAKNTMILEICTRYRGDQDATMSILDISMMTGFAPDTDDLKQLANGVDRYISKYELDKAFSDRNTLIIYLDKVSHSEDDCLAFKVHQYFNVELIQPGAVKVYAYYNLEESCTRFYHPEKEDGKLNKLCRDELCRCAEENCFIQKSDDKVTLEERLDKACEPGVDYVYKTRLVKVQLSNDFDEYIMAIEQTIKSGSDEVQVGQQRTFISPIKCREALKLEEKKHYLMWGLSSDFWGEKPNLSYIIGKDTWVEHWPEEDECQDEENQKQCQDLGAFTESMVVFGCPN
Assay: cell-based or functional assay
Form entry: value (nM) — number only.

Task: Suppose we examine the binder MTSP-1 protease domain I41S/Y59F/F97S/ins97aV/S116Y/C122S/Q192G/D217V (enzyme) VVGGTDADEGEWPWQVSLHALGQGHSCGASLISPNWLVSAAHCFIDDRGFRYSDPTQWTAFLGLHDQSQRSAPGVQERRLKRIISHPFFNDSVTFDYDIALLELEKPAEYSYMVRPISLPDASHVFPAGKAIWVTGWGHTQYGGTGALILQKGEIRVINQTTCENLLPQQITPRMMCVGFLSGGVDSCGGDSGGPLSSVEADGRIFQAGVVSWGVGCAQRNKPGVYTRLPLFRDWIKENTGV ; what EC50 hC3 cleavage value has been reported?
Result: 8.22

Task: # get_value(readout='EC50 hC3 cleavage', item= MTSP-1 protease domain Q38H/I41A/D60bV/F60eR/Y60gW/D96F/F97E/ins97aT/T98G/F99M/C122S/G151N/Q175L/Q192G (enzyme) VVGGTDADEGEWPWQVSLHALGHGHACGASLISPNWLVSAAHCYIDVRGRRWSDPTQWTAFLGLHDQSQRSAPGVQERRLKRIISHPFFNFETGMDYDIALLELEKPAEYSSMVRPISLPDASHVFPAGKAIWVTGWGHTQYGGTNALILQKGEIRVINQTTCENLLPQLITPRMMCVGFLSGGVDSCGGDSGGPLSSVEADGRIFQAGVVSWGDGCAQRNKPGVYTRLPLFRDWIKENTGV )
Result: 16.9

Task: Record request: EC50 hC3 cleavage value, item MTSP-1 protease domain Q38H/I41A/D60bV/F60eR/Y60gW/D96F/F97E/ins97aS/T98G/F99M/C122S/G151N/Q175L/Q192G (enzyme) VVGGTDADEGEWPWQVSLHALGHGHACGASLISPNWLVSAAHCYIDVRGRRWSDPTQWTAFLGLHDQSQRSAPGVQERRLKRIISHPFFNFESGMDYDIALLELEKPAEYSSMVRPISLPDASHVFPAGKAIWVTGWGHTQYGGTNALILQKGEIRVINQTTCENLLPQLITPRMMCVGFLSGGVDSCGGDSGGPLSSVEADGRIFQAGVVSWGDGCAQRNKPGVYTRLPLFRDWIKENTGV
Result: 21.3

Task: Dear colleague, I am looking for the recorded EC50 hC3 cleavage of the following binder: MTSP-1 protease domain Q38H/I41A/D60bV/F60eR/Y60gW/D96I/ins97aN/F97Y/T98G/F99L/C122S/G151H/Q175L/Q192D (enzyme) VVGGTDADEGEWPWQVSLHALGHGHACGASLISPNWLVSAAHCYIDVRGRRWSDPTQWTAFLGLHDQSQRSAPGVQERRLKRIISHPFFNIYNGLDYDIALLELEKPAEYSSMVRPISLPDASHVFPAGKAIWVTGWGHTQYGGTHALILQKGEIRVINQTTCENLLPQLITPRMMCVGFLSGGVDSCDGDSGGPLSSVEADGRIFQAGVVSWGDGCAQRNKPGVYTRLPLFRDWIKENTGV
Result: 1.57

Task: Please look up its EC50 hC3 cleavage: MTSP-1 protease domain I41S/C122S/G151N/Q175D/Q192R (enzyme) VVGGTDADEGEWPWQVSLHALGQGHSCGASLISPNWLVSAAHCYIDDRGFRYSDPTQWTAFLGLHDQSQRSAPGVQERRLKRIISHPFFNDFTFDYDIALLELEKPAEYSSMVRPISLPDASHVFPAGKAIWVTGWGHTQYGGTNALILQKGEIRVINQTTCENLLPQDITPRMMCVGFLSGGVDSCRGDSGGPLSSVEADGRIFQAGVVSWGDGCAQRNKPGVYTRLPLFRDWIKENTGV
Result: 96.8
